- System: T-cell
- experiment: Immunostimulant activity in Balb/c mouse T cells assessed as ConA-induced cell proliferation at 10 uM after 48 hrs by MTT assay relative to control
- Assay type: ADME, cell-based
Give measured Activity for each item. Keep answers brief.
Answers are plain numbers, in %.

Worked cases, answers included:
CCOC(=O)[C@H](C)c1ccc2c(C)cc(O)c(C)c2c1	39.78
Cc1cc(O)c(C)c2c1CC[C@@H]([C@@H](C)C(=O)N1CCOCC1)C2	12.08
Cc1ccc(NC(=O)[C@H](C)[C@@H]2CCc3c(C)cc(O)c(C)c3C2)cc1O	3.84

Would you kindly look at the next entry?
The reported value for Cc1c(N)c(O)c(C)c2c1CC[C@H]1[C@H](C)C(=O)O[C@@H]21 in terms of Activity is 36.02

* * *

- Tested on: T-cell
- experiment: Cytotoxicity against Balb/c mouse T cells assessed as reduction in cell proliferation at 100 uM after 48 hrs by MTT assay
- Format: cell-based
measured-attribute: Activity

Examples with answers:
CC(=O)OC1=C(C)C2=C3OC(=O)C(C)=C3CC[C@@]2(C)CC1	Toxic
CCOC(=O)[C@H](C)C1=Cc2c(C)c(O)cc(C)c2CC1	Toxic
CCOC(=O)[C@H](C)c1ccc2c(C)cc(O)c(C=O)c2c1	Toxic
Cc1cc(O)c(C)c2c1CC[C@@H]([C@@H](C)C(=O)Nc1nccc(C)c1[N+](=O)[O-])C2	Non-Toxic
CCOC(=O)[C@H](C)c1ccc2c(C)cc(O)c(C)c2c1	Toxic

Hi, could you look up Activity for each item in my list?
1. Cc1cc(O)c(C)c2c1CC[C@@H]([C@@H](C)C(=O)N1CCOCC1)C2
2. CC1=C(Cl)C=C[C@]2(C)CC[C@@H]3C(=C12)OC(=O)[C@H]3C
3. COC(=O)[C@H](C)C1=Cc2c(C)c(OC)cc(C)c2CC1
4. COc1cc(C)c2ccc([C@@H](C)C(=O)O)cc2c1C
5. Cc1cc(O)c(C)c2c1CCC(C(C)CO)C2O (stereo not given)

1: Non-Toxic; 2: Toxic; 3: Toxic; 4: Non-Toxic; 5: Toxic
